- METHOD DESCRIPTION: Lapatinib brain and plasma exposure in wild-type FVB mice
- Assay type: in vivo, mouse
- RECORDED CONDITIONS: male, FVB, mouse, brain and plasma, oral, 90 mg/kg
QUANTITY KIND: Kp
Write the value as a bare number.

[ask] Value lookup for Kp; key = "CS(=O)(=O)CCNCc1ccc(-c2ccc3ncnc(Nc4ccc(OCc5cccc(F)c5)c(Cl)c4)c3c2)o1"
[reply] 0.067

###

- METHOD DESCRIPTION: Botryllamide G plasma pharmacokinetics in wild-type mice
- Assay type: in vivo
- RECORDED CONDITIONS: male, FVB, mouse, iv, 13.4 mg/kg
QUANTITY KIND: Cmax (ng/mL)
Please reply with the bare figure in ng/mL and do not write the unit itself.

[ask] Value lookup for Cmax; key = CO/C(=C\c1ccc(O)cc1)C(=O)N/C=C/c1cc(Br)c(O)c(Br)c1 [botryllamide G]
[reply] 4110
